# PROTOCOL_NOTES: Plasma concentration in mouse at 10 mg/kg, po measure after 3 hrs
# Assay type: ADME, organism-based
Parameter: concentration at 3 h. Scope: all listed entries.
Write the number in ng/mL without appending the unit.

Ask: Quick one: give measured concentration at 3 h for `O=C(O)CCc1cc(-c2cc(Cl)cc(Cl)c2)n(-c2ccc(Cl)cc2)n1`
Reply: 35000

We next turn to a different compound, shown below.
Ask: Quick one: give measured concentration at 3 h for `O=C(O)CCCc1cc(-c2cc(Cl)cc(Cl)c2)n(-c2ccccc2)n1`
Reply: 35000

* * *

Parameter: half-life. Scope: all listed entries.
# PROTOCOL_NOTES: Half life in mouse at 10 mg/kg, po
# Assay type: ADME, organism-based
# EXPERIMENTAL_SETUP: in vivo

Ask: Quick one: give measured half-life for `O=C(O)CCc1nc(-c2ccccc2)c(-c2cc(C(F)(F)F)cc(C(F)(F)F)c2)o1`
Reply: > 3 h

We next turn to a different molecule, shown below.
Ask: Quick one: give measured half-life for `O=C(O)CCCc1cc(-c2cc(Cl)cc(Cl)c2)n(-c2ccccc2)n1`
Reply: > 3 h

* * *

# MEASURED_TARGET: Retinoic acid receptor RXR-beta (Homo sapiens)
# Sequence (P28702 whole entry): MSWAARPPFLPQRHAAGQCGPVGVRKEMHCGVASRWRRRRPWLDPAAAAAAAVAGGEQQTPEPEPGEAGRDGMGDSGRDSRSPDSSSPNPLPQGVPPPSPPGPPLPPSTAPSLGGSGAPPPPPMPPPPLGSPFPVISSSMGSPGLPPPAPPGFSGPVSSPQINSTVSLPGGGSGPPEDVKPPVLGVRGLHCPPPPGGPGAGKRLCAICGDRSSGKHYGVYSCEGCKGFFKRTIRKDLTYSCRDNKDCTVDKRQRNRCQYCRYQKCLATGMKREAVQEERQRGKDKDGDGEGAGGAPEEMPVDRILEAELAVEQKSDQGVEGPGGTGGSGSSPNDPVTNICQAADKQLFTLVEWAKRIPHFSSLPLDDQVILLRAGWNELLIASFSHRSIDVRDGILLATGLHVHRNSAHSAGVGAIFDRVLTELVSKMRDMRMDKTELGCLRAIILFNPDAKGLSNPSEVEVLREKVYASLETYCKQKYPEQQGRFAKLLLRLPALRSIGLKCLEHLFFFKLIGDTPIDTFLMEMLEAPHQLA
# PROTOCOL_NOTES: Agonist activity at human RXRbeta transfected in human HEK293T cells co-expressing pFR/pRL-Luc incubated for 14 to 16 hrs by hybrid reporter gene assay
REPORTED_METRIC: EC50
Field: value (include unit after the number)

See these solved cases before continuing.
Ask: Quick one: give measured EC50 for `O=C(O)CCc1cc(-c2cc(Cl)cc(Cl)c2)n(-c2cccc(Cl)c2)n1`
Reply: 2 µM

Ask: Quick one: give measured EC50 for `O=C(O)CCCc1nc(-c2ccccc2)c(-c2ccccc2)o1`
Reply: 13.5 µM

Ask: Quick one: give measured EC50 for `O=C(O)CCc1nc(-c2ccc(Cl)cc2)c(-c2ccccc2)o1`
Reply: 2.4 µM

Ask: Quick one: give measured EC50 for `O=C(O)CCCCc1nc(-c2ccccc2)c(-c2ccccc2)o1`
Reply: 12.4 µM

Ask: Quick one: give measured EC50 for `O=C(O)CCc1nc(-c2ccccc2)c(-c2cccc(C(F)(F)F)c2)o1`
Reply: 0.08 µM

We next turn to a different compound, shown below.
Ask: Quick one: give measured EC50 for `O=C(O)CCCc1cc(-c2cc(Cl)cc(Cl)c2)n(-c2ccc(Cl)cc2)n1`
Reply: 1.1 µM
